# Test system: HL-60(TB) leukemia
# assay.protocol: NCI tumour cell line growth inhibition, 48 h
parameter.measured: TGI

INSERT INTO assay_data (compound, parameter_measured, observed_measurement) VALUES
  ('CCc1cccc(C)c1NC(=S)NC(=O)c1ccccc1C(=O)NC(=S)Nc1c(C)cccc1CC', 'TGI', '> 100 µM'),
  ('CCOC(=O)C(CCc1ncnc2c1ncn2Cc1ccccc1)(CCc1ncnc2c1ncn2Cc1ccccc1)C(=O)OCC', 'TGI', '> 100 µM'),
  ('O=C1c2ccccc2C(=O)N1CC(CN1C(=O)c2ccccc2C1=O)(C(=O)OCc1ccccc1)C(=O)OCc1ccccc1', 'TGI', '> 100 µM'),
  ('CC(=O)Nc1ccc(Sc2nnc(NC(C)=O)s2)cc1', 'TGI', '> 100 µM'),
  ('N/C(=N\S(=O)(=O)c1cc(Cl)c(Oc2ccc([N+](=O)[O-])cc2Cl)c(Cl)c1)Nc1ccc(Cl)cc1', 'TGI', '39.6 µM'),
  ('c1ccc([P+](CCCCCC[P+](c2ccccc2)(c2ccccc2)c2ccccc2)(c2ccccc2)c2ccccc2)cc1', 'TGI', '67 µM'),
  ('COc1cccc(NC(=O)C(=O)C2C=CCS2(=O)=O)c1 (stereo unspecified)', 'TGI', '> 100 µM'),
  ('COc1ccc(N(C)c2nc(Cl)nc3cnn(C)c23)cc1', 'TGI', '< 0.0222 µM'),
  ('CCOC(=O)C1(Br)S(=O)(=O)OCCOS1(=O)=O', 'TGI', '> 100 µM'),
  ('CC(=O)OCC1OC(n2nc(Cc3ccccc3)c(=S)[nH]c2=S)C(OC(C)=O)C(OC(C)=O)C1OC(C)=O (stereo unspecified)', 'TGI', '27.2 µM'),
  ('[N-]=[N+]=CC(=O)CCC(=O)N(c1ccccc1)c1ccccc1', 'TGI', '> 10 µM'),
  ('CN(C)c1ccc(N=C2C=CC(=O)c3ccccc32)cc1', 'TGI', '4.52 µM'),
  ('O=c1oc2ccc3ccccc3c2cc1-c1nc2ccc([N+](=O)[O-])cc2o1', 'TGI', '> 100 µM'),
  ('COc1ccc(/C=C/C(=O)c2ccc(OC(=O)/C=C/c3ccccc3)cc2)cc1', 'TGI', '33.7 µM'),
  ('O=C1C2C3C=CC(C2C(=O)N1CN1CCSCC1)C1C2C(=O)N(CN4CCSCC4)C(=O)C2C31 (stereo unspecified)', 'TGI', '73 µM'),
  ('O=C(O)Cc1cccc2c(=O)c3cccc([N+](=O)[O-])c3oc12', 'TGI', '> 100 µM'),
  ('CCOC1CC2OC(=O)C1C=C2C(=O)OC (stereo unspecified)', 'TGI', '46.8 µM'),
  ('Cc1csc(NNC(=O)Nc2ccccc2)n1', 'TGI', '> 100 µM'),
  ('CCOC(=O)C(=O)Nc1ccccc1C(C)C', 'TGI', '> 100 µM'),
  ('COc1cc2ccc1OCc1cccc(n1)COc1ccc(cc1OC)C=NCCNCCN=C2', 'TGI', '> 100 µM'),
  ('CCN(Cc1ccc(F)cc1)c1ccc(CO)c(OC)c1', 'TGI', '46.4 µM');

###

# Tested on: OVCAR-3 ovarian
# assay.protocol: NCI tumour cell line growth inhibition, 48 h
This listing pairs molecules with measured TGI.
parameter.measured: TGI

INSERT INTO measurements (molecule, system, observed_measurement) VALUES
  ('C#CC1NC(=O)C1N(CC)CC (stereo not given)', 'OVCAR-3 ovarian', '> 100 µM'),
  ('CC1CC[P+](c2ccccc2)(c2ccccc2)CC1', 'OVCAR-3 ovarian', '> 100 µM'),
  ('CN(CCCn1ccnc1[N+](=O)[O-])CCCn1ccnc1[N+](=O)[O-]', 'OVCAR-3 ovarian', '> 100 µM'),
  ('CCN(CC)CCn1c2ccccc2c(=O)c2c(OC)ccc(OC)c21', 'OVCAR-3 ovarian', '> 100 µM'),
  ('c1ccc([P+](c2ccccc2)(c2ccccc2)C2c3ccccc3-c3ccccc32)cc1', 'OVCAR-3 ovarian', '5.68 µM'),
  ('COC1CC(O[C@H]2CC[C@@]3(C)[C@@H](CC[C@]4(O)[C@@H]3CC[C@]3(C)[C@@H](C(C)=O)[C@H](OC(=O)CC(C)C)[C@@H](OC(=O)c5ccccc5)[C@@]34O)C2)OC(C)C1OC1CC(OC)C(OC2OC(C)C(O)C(OC)C2O)C(C)O1 (stereo not given in full)', 'OVCAR-3 ovarian', '> 25 µM'),
  ('O=[N+]([O-])C(=C/c1cccs1)/C(=C\c1cccs1)[N+](=O)[O-]', 'OVCAR-3 ovarian', '21.7 µM'),
  ('CSc1c(C#N)c(S)[nH]c(=O)c1C#N', 'OVCAR-3 ovarian', '> 100 µM'),
  ('Nc1ncnc2c1ccn2[C@@H]1O[C@H]([C@H](O)c2ccc(Cl)c(F)c2)[C@@H](O)[C@H]1O', 'OVCAR-3 ovarian', '> 100 µM'),
  ('COc1ccc(CCc2cc(OC)c(O)c(OC)c2)cc1', 'OVCAR-3 ovarian', '> 100 µM'),
  ('O=C1C(S(=O)(=O)c2ccccc2)=C(CS(=O)(=O)c2ccccc2)[C@@H](OCc2ccccc2)[C@@H]1OCc1ccccc1', 'OVCAR-3 ovarian', '27.5 µM'),
  ('CCOC(=O)C(C(O)c1ccc([N+](=O)[O-])cc1)P(=O)(OCC)OCC (stereo not given)', 'OVCAR-3 ovarian', '> 100 µM'),
  ('O=C1O/C(=C\c2ccc(O)cc2)C(c2ccc(O)c(Cl)c2)=C1Cl', 'OVCAR-3 ovarian', '> 100 µM'),
  ('CCOC(=O)C(CCc1ncnc2c1ncn2Cc1ccccc1)(CCc1ncnc2c1ncn2Cc1ccccc1)C(=O)OCC', 'OVCAR-3 ovarian', '> 100 µM'),
  ('COC[C@H](C)N=CN1CCc2ccccc2C1(Cc1ccccc1)Cc1ccccc1', 'OVCAR-3 ovarian', '43.8 µM');

###

# Test system: TK-10 renal
# assay.protocol: NCI tumour cell line growth inhibition, 48 h
This listing pairs compounds with measured TGI.
parameter.measured: TGI (µM)

INSERT INTO measurements (compound, parameter_measured, qualifier_sign, observed_measurement) VALUES
  ('COc1ccc2nc(NC(=O)C(=O)NNC(=O)c3ccncc3)sc2c1', 'TGI', '>', 100),
  ('C=C1C(=O)O[C@H]2[C@H]1CC/C(COC(=O)NCCCCCCCCNC(=O)OC/C1=C/CC[C@@]3(C)O[C@H]3[C@H]3OC(=O)C(=C)[C@@H]3CC1)=C\CC[C@@]1(C)O[C@@H]21', 'TGI', '=', 0.855),
  ('COc1cccc(NC(=O)C(=O)C2C=CCS2(=O)=O)c1 (configuration not stated)', 'TGI', '>', 100),
  ('CCCNC(=O)N1CC(CN2CCN(c3ccccc3)CC2)O/C1=N/C(=O)Nc1ccccc1 (configuration not stated)', 'TGI', '>', 100),
  ('O=[N+]([O-])C(=C/c1cccs1)/C(=C\c1cccs1)[N+](=O)[O-]', 'TGI', '=', 7.76),
  ('COc1ccc2c(c1OC(C)=O)C1=CC(=O)CCC13CCNC3C2 (configuration not stated)', 'TGI', '>', 100),
  ('CCCCc1c2c(c(C)c3c1C(=O)OC3)Oc1ccccc1O2', 'TGI', '>', 71.3),
  ('Cn1cnc([N+](=O)[O-])c1Sc1nccc(=O)[nH]1', 'TGI', '>', 100),
  ('CC1=NN(c2nc(N)nc(/C(C#N)=C\c3cccc([N+](=O)[O-])c3)n2)C(C)(C)C1', 'TGI', '=', 58.8),
  ('C#Cc1cccc(NC(=O)c2ccc(NC(=O)CCl)cc2)c1', 'TGI', '>', 82.5),
  ('COc1cc(/C=C/C(=O)c2c(C)nc3ccccc3c2C)ccc1OCCCN1CCN(C(=O)c2ccco2)CC1', 'TGI', '=', 30),
  ('CCOC(=O)c1cc(C2CCN(Cc3ccccc3)C2=S)c(C(=O)C=[N+]=[N-])[nH]1 (configuration not stated)', 'TGI', '>', 100),
  ('COC[C@H](C)N=CN1CCc2ccccc2C1(Cc1ccccc1)Cc1ccccc1', 'TGI', '=', 38.8),
  ('COC(=O)C(=O)C(C(=O)C(=O)Nc1cc(C)ccc1C)c1nc2ccc(C(=O)c3ccccc3)cc2[nH]c1=O (configuration not stated)', 'TGI', '>', 100),
  ('COCc1c(-c2ccc(NC(=O)Nc3cc(C(F)(F)F)ccc3F)c(F)c2)c2c(N)ncnn2c1CN1CCOCC1', 'TGI', '=', 7.53),
  ('COc1ccc(OC)c(/C=C/c2nc(SCc3ccccc3)n(-c3ccc(Cl)cc3)n2)c1', 'TGI', '>', 100),
  ('CC(C)[C@@H](C)[C@@]1(C)C[C@@H]1[C@@H](C)[C@H]1CC[C@@H]([C@@H]2CC=C3C[C@@H](O)CC[C@]3(C)C2=O)[C@]1(C)CCO', 'TGI', '=', 23.6),
  ('CCOC(=O)C(CCc1ncnc2c1ncn2Cc1ccccc1)(CCc1ncnc2c1ncn2Cc1ccccc1)C(=O)OCC', 'TGI', '>', 100),
  ('COc1cccc(/C=C\c2ccc(O)cc2)c1', 'TGI', '>', 100),
  ('Cc1ccc(N2C(N)=C(C#N)C(C#N)(C#N)C2c2ccccc2)cc1 (configuration not stated)', 'TGI', '=', 28),
  ('O=[N+]([O-])c1ccc(Sc2ccncn2)c([N+](=O)[O-])c1', 'TGI', '=', 9.88),
  ('N#Cc1c(N2CCN(c3ccc([N+](=O)[O-])cc3)CC2)[n+](=O)c2ccccc2n1[O-]', 'TGI', '>', 100);
